- System: Rattus norvegicus
- test_details: Inhibition of rat passive cutaneous anaphylaxis following p.o. administration.
- study_conditions: po
Could you please report measured ED50 for the items listed next?
Lab note: write values as number then unit, every time.

Reference set (2 entries):
{"record_smiles": "CN1CCN(c2cccc(NC(=O)c3nn[nH]n3)c2C#N)CC1", "study_system": "Rattus norvegicus", "ED50": "0.2 mg/kg"}
{"record_smiles": "O=C(Nc1cc(Cl)cc(NC(=O)c2nnn[n-]2)n1)c1nnn[n-]1.[Na+].[Na+]", "study_system": "Rattus norvegicus", "ED50": "2 mg/kg"}

# return ED50 for each item in the list
1. CN(C)c1cccc(NC(=O)c2nnn[n-]2)c1C#N.[Na+]
2. NC(=O)c1c(NC(=O)c2nnn[n-]2)cccc1N1CCCCC1.[Na+]
3. CCNc1cccc(NC(=O)c2nnn[n-]2)c1C#N.[Na+]

### Response
1. 1.7 mg/kg
2. 46 mg/kg
3. 2.6 mg/kg

### Prompt Recorded ED50 of N#Cc1c(NC(=O)c2nn[nH]n2)cccc1N1CCOCC1 , please.
### Response 10 mg/kg
